Protocol Notes: gradient 5% acetonitrile 3 min, to 50% in 2 min, to 85% in 15 min, held 3 min, 100 µL/min
Condition Context: column: Zorbax Extend-C18 2.1 x 50 mm; eluents: water / acetonitrile, 0.1% formic acid
So basically, if RP-LC retention time comes in under 800 s it's Condition met, and if it's 800 s or more it's Condition not met.

{"columns": ["Compound", "Class Assignment"],
 "data": [
  ["CN(C)c1cc(C(=O)NC2CCCC2)c2ccccc2n1", "Condition met"],
  ["COc1ccc(-c2nc3cc(C)ccc3o2)cc1NC(=O)NCc1ccco1", "Condition not met"],
  ["CC(=O)N1C(=O)C2(NCC(C)N2)c2ccccc21 (stereo not given)", "Condition met"],
  ["CC(C)OCCCNC(=O)Cn1c(=O)c2cccn2c2ccc(F)cc21", "Condition met"]
]}

Input: Lab note: confirm whether the reported RP-LC retention time for this compound is below 800 s, equality not counting. compound: O=C(Nc1cnc(-c2ccc(Cl)cc2)nc1)c1cncc(Br)c1
Output: Condition not met

Input: Lab note: confirm whether the reported RP-LC retention time for this compound is below 800 s, equality not counting. compound: COc1ccc(Nc2nc(-c3nnn(-c4ccc(Br)cc4F)c3C)ns2)cc1
Output: Condition not met

Input: Lab note: confirm whether the reported RP-LC retention time for this compound is below 800 s, equality not counting. compound: COc1ccc(-c2cc(C(=O)O)c3ccccc3n2)cc1
Output: Condition met

Input: Lab note: confirm whether the reported RP-LC retention time for this compound is below 800 s, equality not counting. compound: O=C(Nc1ccc(Cl)cc1)C1CCc2sc(C(=O)N3CCOCC3)cc2C1 (stereo not given)
Output: Condition met

The origin of these recorded values is the METLIN SMRT retention time set (Domingo-Almenara et al. 2019).
